Recorded values, source PubChem BioAssay (NCI).

method-description: NCI Yeast Anticancer Drug Screen. Data for the sgs1 mgt1 strain (AID 161);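 also: 0% = growth of cultures given vehicle only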
condition-info: S. cerevisiae sgs1 mgt1 strain, at 5.0 µM (retest, dose inferred, filed as 0.5), stronger effect = higher value
This is part of a sample that, as a whole, favours compounds with a hit. Of some 79,000 tested, about 15% had one in any assay.
recorded-metric: growth inhibition (%)
Give just the number in %; leave the unit off.

Illustrative cases are given below, each with its answer.
{"molecule": "NP(N)(=O)Nc1ccccc1", "measurement-units": "%", "reported-value": -1}
{"molecule": "Brc1ccc(N2C[N+](c3ccc(Br)cc3)=NC(c3ccccc3)=N2)cc1", "measurement-units": "%", "reported-value": 6}
{"molecule": "c1ccc2c(NCCCCCCNc3c4ccccc4nc4ccccc34)c3ccccc3nc2c1", "measurement-units": "%", "reported-value": 54}
{"molecule": "CC(C)CC(NC(=O)C(N)C(C)C)C(=O)NC(CCCCN)C(=O)Nc1ccc(N(CCCl)CCCl)cc1 (stereo not given)", "measurement-units": "%", "reported-value": 21}
{"molecule": "Nc1c(Br)cc(Br)c2c1C(=O)c1ccccc1C2=O", "measurement-units": "%", "reported-value": 3}

Requested field: growth inhibition. Item: `CCNCC(=O)O[C@]1(CC)C(=O)OCc2c1cc1n(c2=O)Cc2cc3ccccc3nc2-1`
31

Would you kindly repeat that for CCC(C)N1CN(c2ccccc2)C2(CCN(CC3COc4ccccc4O3)CC2)C1=O (stereo not given) ?
18

Would you kindly repeat that for `CCCN(CCC)c1c([N+](=O)[O-])cc(S(N)(=O)=O)cc1[N+](=O)[O-]` ?
-11

Would you kindly repeat that for COC1C(C)OC(OC2CC(C)(O)Cc3cc4c(c(O)c32)C(=O)c2c(O)cc3c(c2C4=O)OC2OC3(C)C(O)C(N(C)C)C2O)C(OC)C1(C)OC (stereo not given) ?
76

Would you kindly repeat that for CCC[CH2][Sn]([CH2]CCC)([O]C(=O)C(N)CSC)[O]C(=O)C(N)CSC (stereo not given) ?
-5
